assay: Inhibition of Escherichia coli polymerase 3alpha/beta subunit homo dimer interaction by plate binding assay
quantity-name: pIC50
Just so you know, pIC50 here is -log10 of the concentration in molar units; reply with that number alone.

H-IGQADWFGV-OH :: 3.46

## Input What value of pIC50 has been recorded for this entry: `H-IGQADIFGV-OH`
## Output 3.50

## Input Consider the substance `H-IGQADLFGV-OH` and give its measured pIC50.
## Output 4.25

## Input # get_value(readout='pIC50', item= `H-IGQADMWGV-OH` )
## Output 3.55

## Input Requested read-out: pIC50. Entry: `H-IGQADFFGV-OH`
## Output 3.76

## Input Given `H-IGQLSLFGV-OH` , state its recorded pIC50.
## Output 5.64

Data origin: ChEMBL document CHEMBL1821636
